assay remarks: in vitro
settings: human, hela cells, % viability, bulk resorufin, single well
result type: viability at 28.5 h, 10 µM (%)
One number for each entry, in %.

// worked examples, viability at 28.5 h, 10 µM included
In [3]: df
Out[3]:
                                   molecule                 result_type  unit_abbrev  numeric_value
0  CC1CCN(c2ccc(C(C)NC(=O)CCC3C(=O)NC(=O)NC3=O)cc2)CC1 (centres unmarked)  viability at 28.5 h, 10 µM            %           96.9
1  O=C(O)CCC(=O)OC1N=C(c2ccccc2Cl)c2cc(Br)ccc2NC1=O (centres unmarked)  viability at 28.5 h, 10 µM            %           85.2
2  CCN1C(=O)/C(=C/Nc2ccc(S(N)(=O)=O)cc2)C(=O)NC1=S  viability at 28.5 h, 10 µM            %            112
3  Cc1cc(/C=C2\C(=O)NC(=O)N(Cc3ccccc3Cl)C2=O)c(C)n1-c1ccc(C(=O)O)cc1  viability at 28.5 h, 10 µM            %           84.9
4  O=C(NCCc1cccs1)N1CCC2(CC1)OCc1cc(F)ccc1O2  viability at 28.5 h, 10 µM            %           98.3
5  CCOc1cc(/C=C2/C(=O)NC(=S)N(c3ccccc3CC)C2=O)ccc1OC(C)C(=O)O (centres unmarked)  viability at 28.5 h, 10 µM            %           97.8
6  CN(C)[C@H]1CCC[C@@H]1C(=O)Nc1ccc(Cl)c(Cl)c1  viability at 28.5 h, 10 µM            %           86.9

Now look at this entry.
Entry under review: COc1ccc(N2C(=O)/C(=C/c3ccc(OCC(=O)O)c(Cl)c3)C(=O)NC2=S)cc1 . Reported viability at 28.5 h, 10 µM?
93.7

###

assay remarks: in vitro
settings: human, hela cells, % viability, bulk resorufin, single well
Binary call on viability at 28.5 h, 10 µM with cut-off 90%: strictly below means condition met, and equality or higher means condition not met.

Answered cases to consult:
In [3]: df
Out[3]:
                                   compound         class_name
0  Cc1ccc(CN2CCN(Cc3ccc([N+](=O)[O-])cc3)CC2)cc1  condition not met
1  O=C1NC(=O)C(CC(=O)N2CCC3(CC2)OCc2cc(-c4ccccc4)ccc2O3)N1 (stereo not drawn)      condition met
2  O=C1NC(=S)N(c2ccccc2F)C(=O)/C1=C/NCc1ccco1      condition met
3           CC(=O)Nc1ccc(OC(=O)N2CCCCC2)cc1  condition not met
4  CC1(C)CC(=O)C=C(C(=O)Nc2cccc(-c3ccc4c(c3)COC3(CCNCC3)O4)c2)O1  condition not met

We next turn to a different compound, shown below.
Say whether its viability at 28.5 h, 10 µM is strictly beneath 90%. Entry: O=P(Nc1ccc(Cl)c(Cl)c1)(Nc1ccc(Cl)c(Cl)c1)Oc1ccc(Cl)cc1
condition not met

###

I'd appreciate it if you could supply viability at 28.5 h, 10 µM values for the items below.
assay remarks: in vitro
settings: human, hela cells, % viability
One number for each entry, in %.

>>> df
                                   compound                 result_type  numeric_value
0  CCOC(=O)c1ccc(-c2nccnc2Oc2cccc(OC)c2)cc1  viability at 28.5 h, 10 µM             81
1  Cc1cc(C)nc(NC2=NC(=O)CC(C(=O)O)N2c2ccc(Cl)cc2Cl)n1 (stereo not shown)  viability at 28.5 h, 10 µM           94.5
2  CC(=O)Nc1ccc(CN(C)c2c(C)nc3c(OCC4CCCCC4)cccn23)cc1  viability at 28.5 h, 10 µM           93.5
3  CC(=O)c1cc(C(=O)NC(c2ccccc2)c2cccnc2)cs1 (stereo not shown)  viability at 28.5 h, 10 µM            125
4  Cc1nc(S(=O)(=O)N2CCC(C(=O)N3CCCCCC3)CC2)cn1C  viability at 28.5 h, 10 µM           99.3
5  O=C(NCCNc1ccc(Cl)cc1[N+](=O)[O-])c1ccccc1Br  viability at 28.5 h, 10 µM            102

Go through the list and state viability at 28.5 h, 10 µM for each entry.
1. O=C(CN1C(=O)N2CCCN=C2c2ccc(Cl)cc21)N1CCCC1
2. COc1cccc2sc(N(Cc3cccnc3)C(=O)c3ccc(S(=O)(=O)N(C)C)cc3)nc12
3. O=C(Nc1ccc(Cc2ccc(NC(=O)c3ccc(Br)cc3)c(O)c2)cc1O)c1ccc(Br)cc1

1: 78.7; 2: 103; 3: 102

###

assay remarks: in vitro
settings: human, hela cells, % viability
result type: viability at 28.5 h, 10 µM (%)
Answers are plain numbers, in %.

Record excerpt, results attached:
>>> df
                                   molecule  numeric_value
0  CCOc1cc(OCC)cc(C(=O)N2CCC3(CC2)CC(=O)c2cc(OCCN(C)C)ccc2O3)c1 [CBK169003T]           89.3
1  CCN1CC(C(=O)N2CCCC(CN(C)C)C2)CC1=O (centres unmarked) [CBK282064]            106

Lab note: each molecule below needs its viability at 28.5 h, 10 µM filled in.
1. Cc1c(C(=O)N2CCCC(c3nc(C)n4ccsc34)C2)cnn1C (centres unmarked) [CBK284593]
2. CN1CCN(S(=O)(=O)c2ccc(NC(=O)c3cc(-c4ccncc4)nc4ccc(Cl)cc34)cc2)CC1 [CBK267730]
3. Cc1ccc(OCCn2c(SCCC(=O)O)nc3ccccc32)cc1 [CBK262561]
4. Oc1ccc(/C=N/c2nnn[nH]2)cc1 [CBK260976]
5. Fc1cccc(-c2nccnc2NCCc2c[nH]c3ccccc23)c1 [CBK036861]
6. O=c1[nH]c2ncc(-c3cccc4ncccc34)nc2n1Cc1ccccc1 [CBK064245]
7. CCn1c2cc(C)sc2c2cnn(CC(=O)N3CCCC3)c(=O)c21 [CBK284168]
8. CN1c2ccccc2C(c2ccccc2)=NS1(=O)=O [CBK022873]

[102, 98.6, 84.7, 101, 96.7, 89.4, 99.8, 92.1]

###

Consider the following compounds; for each one, report its viability at 28.5 h, 10 µM.
assay remarks: in vitro
settings: human, hela cells, % viability
One number for each entry, in %.

Some compounds with known viability at 28.5 h, 10 µM results, for comparison:
>>> df
                                   compound  numeric_value
0      CC(=O)Nc1ccc(CNc2nnc(C3CCCCC3)o2)cc1            105
1  CCc1cc(C(=O)Nc2nn(C)c3cccc(N4CCOCC4)c23)cs1            110

I'm hoping you can list viability at 28.5 h, 10 µM for every compound here, please.
1. O=C(COc1ccc(S(=O)(=O)N2CCCCC2)cc1)NCc1cccnc1
2. CCOC1CCCN(C(=O)c2cccnc2Nc2cccc(F)c2)C1 (centres unmarked)
3. CC(=O)N1CCC(C(=O)NC(=O)NCCc2ccccc2)CC1
4. O=C(NC(=O)C1CCN(CCc2ccc3c(c2)CCO3)CC1)Nc1ccccc1Cl
5. CC1CC(Nc2ccccc2)c2ccccc2N1C(=O)CCCC(=O)O (centres unmarked)
6. CS(=O)(=O)c1cccc(S(=O)(=O)N2CCN(Cc3ccccc3)CC2)c1
7. CCc1nc2ccc(C(=O)NCc3ccc4c(c3)OCO4)cn2c1N(CCN(C)C)CC1CC1

97.6
86.9
96.9
84.3
89.3
88.9
97.1

Items follow; give viability at 28.5 h, 10 µM for each.
1. CN(C)C(CNCc1cn(C)nc1-c1cccnc1)c1ccccc1 (centres unmarked)
2. Cc1cccc(C2(c3cccc(C)c3)CC2C(=O)NCc2cccnc2)c1 (centres unmarked)
3. Cc1ccccc1CC(=O)N1CCCC1c1n[nH]cc1-c1ccncc1 (centres unmarked)
4. C=CCOc1ccc(C(=O)C2=C(O)C(=O)N(Cc3cccnc3)C2c2cccnc2)cc1 (centres unmarked)
5. Cc1cc(NC(=O)C(C)OC(=O)C(NC(=O)OC(C)(C)C)c2ccccc2)no1 (centres unmarked)
6. Cn1ccnc1C1(O)CCN(C(=O)c2ccccc2F)CC1

1. 84.8
2. 106
3. 87.7
4. 98
5. 100
6. 105

Hi there! I need viability at 28.5 h, 10 µM for each item below, if you can.
1. CC(C)(C)c1nc(-c2ccccc2)c2ccccn12
2. CCN1CCN(C(=O)CCn2c(C(F)F)cc3cccnc32)CC1
3. FC(F)(F)c1cccnc1OCCNc1ccccc1

[101, 112, 98.7]

Hello, I would appreciate it if you could give viability at 28.5 h, 10 µM for each entry below.
1. CCCN1CCC(N2CCN(CCO)CC2)CC1
2. Cc1cc(COc2ccnc(N3CCCN(CCCC#N)CC3)n2)no1

79.9
96.8
